tested on: PHE-precontracted rat aorta with endothelium (E+); assay: Vasodilator effect in PHE-precontracted rat aortic rings with intact endothelium (E+); format: cell-based; details: Rattus norvegicus; dose-response curve, E+; read-out: EC50 (concentration required to achieve 50% relaxation of tissue)
measure: EC50 (nM)
Report the figure in nM without appending any unit label.

Consider the reported EC50 for these compounds:
{"compound": "C=C(C)[C@@H]1Cc2cc(C(C)=O)c(O)cc2O1 [Metabolite (B)]", "EC50 (nM)": 7.16}
{"compound": "CC(C)=CCc1cc(/C(C)=N/O)ccc1O [Oxime (1)]", "EC50 (nM)": 6}

Attention now turns to another entry.
# lookup: EC50 of CC(=O)c1ccc(O)c(CC=C(C)C)c1 [Metabolite (A)] 8.98
